# assayed.system: Cannabinoid receptor 2 (Homo sapiens, UniProt P34972)
# Sequence (P34972 whole entry): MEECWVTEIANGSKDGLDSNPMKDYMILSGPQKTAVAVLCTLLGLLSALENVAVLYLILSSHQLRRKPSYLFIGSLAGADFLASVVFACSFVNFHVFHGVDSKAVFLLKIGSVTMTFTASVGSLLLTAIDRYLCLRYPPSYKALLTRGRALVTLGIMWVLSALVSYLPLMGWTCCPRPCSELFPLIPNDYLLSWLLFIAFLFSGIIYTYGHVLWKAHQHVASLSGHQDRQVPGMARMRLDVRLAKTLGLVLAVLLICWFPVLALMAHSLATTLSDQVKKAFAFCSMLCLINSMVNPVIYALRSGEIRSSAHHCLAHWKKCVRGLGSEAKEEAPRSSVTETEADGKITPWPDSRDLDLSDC
# experimental.protocol: Displacement of [3H]CP55,940 from human recombinant CB2 receptor expressed in HEK293 cells at 10 uM
# Format: cell-based
What inhibition was measured for each of the following?

Fill in the blank: the reported inhibition of O=C1N=C2SCCN2C1(c1ccccc1)c1ccccc1 is ____. 6%

Same lookup for O=C1/C(=C/c2c(Cl)cccc2Cl)N=C2SCCCN12 , please. 4%

Repeat with COc1ccc(/C=C2\N=C3SCCCN3C2=O)cc1OC 18%

And the next one, COc1ccc(/C=C2\N=C3SCCCN3C2=O)cc1 ? 6%

# iterate: O=C1/C(=C/c2ccccc2F)N=C2SCCCN12 0%

Lookup O=C1N=C2SCCCCN2C1(c1ccccc1)c1ccccc1 10%

And what about the molecule CCOC(=O)C1CN2C(=O)C(c3ccccc3)(c3ccccc3)N=C2S1 (stereo unspecified) ? 0%

Also need O=C(Oc1cccc(/C=C2\N=C3SCCCN3C2=O)c1)c1ccccc1 , thanks. 47%

Subsequent entry: O=C1/C(=C/c2cccc(OCc3ccc(Cl)c(Cl)c3)c2)N=C2SCCCN12 0%

What about this molecule? O=C(Oc1cccc(/C=C2\N=C3SCCCN3C2=O)c1)c1ccc(Cl)cc1 0%

Try the molecule O=C1/C(=C/c2ccccc2Cl)N=C2SCCCN12 21%

* * *

# assayed.system: N-arachidonyl glycine receptor (Homo sapiens) (UniProt Q14330)
# experimental.protocol: Antagonist activity against human GPR18 expressed in CHO cells assessed as reduction in delta9-THC-induced beta-arrestin recruitment at 10 uM by beta-galactosidase enzyme fragment complementation method
# Format: cell-based
Hi there, I'd appreciate the recorded inhibition for every entry that follows.
Report as a plain number; the unit % is understood.

Quick check: inhibition on N-arachidonyl glycine receptor (Homo sapiens) (UniProt Q14330), item O=C1/C(=C/c2ccccc2)N=C2SCCCN12 ? 5

Continue with O=C1/C(=C/c2ccccc2Cl)N=C2SCCCN12 6

Can you check CCCCC/C=C\C/C=C\C/C=C\C/C=C\CCCC(=O)NCC(=O)O [ARACHIDONOYL GLYCINE] next? 0

Try this compound next: O=C1N=C2SCCCCN2C1(c1ccccc1)c1ccccc1 0

Same again, this time with CCOC(=O)COc1cccc(/C=C2\N=C3SCCCCN3C2=O)c1 22

One more compound: O=C1/C(=C/c2cccc(Cl)c2Cl)N=C2SCCCN12 0

// query: CCOC(=O)C1CN2C(=NC(=O)C2(c2ccccc2)c2ccccc2)S1 (stereo not given) 0

Field entry: O=C1N=C2SCCCN2/C1=C\C=C\c1ccccc1 2

Also need O=C1/C(=C/c2cccc([N+](=O)[O-])c2)N=C2SCCCN12 , thanks. 6

Now try O=C1/C(=C/c2c(Cl)cccc2Cl)N=C2SCCCN12 . 0

What would you report for O=C1N2CCCSC2=NC1(c1ccccc1)c1ccccc1 ? 0

Now give it for O=C1/C(=C/C=C/c2ccccc2)N=C2SCCCN12 too. 0

Next compound up: COc1ccc(/C=C2\N=C3SCCCN3C2=O)cc1OC 2

Same again, this time with O=C1/C(=C/c2ccccc2F)N=C2SCCCN12 17

Entry O=C1N2CCSC2=NC1(c1ccccc1)c1ccccc1 please 12

* * *

# assayed.system: N-arachidonyl glycine receptor (Homo sapiens)
# Sequence (Q14330 whole entry): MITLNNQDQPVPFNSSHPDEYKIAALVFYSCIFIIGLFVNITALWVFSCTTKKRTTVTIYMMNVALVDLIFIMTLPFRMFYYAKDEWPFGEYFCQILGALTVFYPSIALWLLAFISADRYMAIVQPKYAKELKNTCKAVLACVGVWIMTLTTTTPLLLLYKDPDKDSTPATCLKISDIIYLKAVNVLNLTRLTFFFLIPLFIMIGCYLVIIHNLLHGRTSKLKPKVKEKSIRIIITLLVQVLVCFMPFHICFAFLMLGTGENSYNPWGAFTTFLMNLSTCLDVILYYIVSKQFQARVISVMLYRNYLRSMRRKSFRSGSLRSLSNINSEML
# experimental.protocol: Antagonist activity against human GPR18 expressed in CHO cells assessed as reduction in delta9-THC-induced beta-arrestin recruitment by beta-galactosidase enzyme fragment complementation method
pIC50: −log10 of the molar value.
Exercise: state measured pIC50 for each of the compounds provided.

# get_value(readout= pIC50, system= N-arachidonyl glycine receptor (Homo sapiens)) for O=C1N=C2SCCCN2C1(c1ccccc1)c1ccccc1 < 5.00

What do we get for O=C1/C(=C/c2ccc(F)cc2F)N=C2SCCCN12 ? < 5.00

Entry O=C1/C(=C/c2cccc(OCc3ccccc3)c2)N=C2SCCCCN12 please 5.00

// query: O=C1N2CCSC2=NC1(c1ccccc1)c1ccccc1 < 5.00

Here is the next compound: CCOC(=O)C1CN2C(=O)C(c3ccccc3)(c3ccccc3)N=C2S1 (stereo not given) < 5.00

Record: O=C1/C(=C/c2cccc(OCc3ccc(Cl)c(Cl)c3)c2)N=C2SCCCN12 5.21

Moving on to the next compound: CCCCC/C=C\C/C=C\C/C=C\C/C=C\CCCC(=O)O[C@H](CO)COP(=O)(O)O[C@@H]1[C@@H](O)[C@H](O)[C@@H](O)[C@H](O)[C@@H]1O < 5.00

Please give the result for O=C1/C(=C/c2cccc(OCc3ccc(Cl)cc3Cl)c2)N=C2SCCCN12 too. 5.59

Follow-up item: CCOC(=O)COc1cccc(/C=C2\N=C3SCCCCN3C2=O)c1 < 5.00

Try the compound O=C1/C(=C/c2ccc(-c3ccccc3)cc2)N=C2SCCCCN12 < 5.00

Next compound up: O=C1N2CCCCSC2=NC1(c1ccccc1)c1ccccc1 < 5.00

Okay, and O=C1/C(=C/c2cccc(OCc3cccc(Cl)c3)c2)N=C2SCCCCN12 ? < 5.00

Input COc1ccc(/C=C2\N=C3SCCCN3C2=O)c(OC)c1 < 5.00

# iterate: O=C1N2CCCSC2=NC1(c1ccccc1)c1ccccc1 < 5.00

Try the compound C/C(=C1/N=C2SCCCCN2C1=O)c1ccccc1 < 5.00
